All values here come from patent US20220073557A1.

- Test system: sporadic PD patient fibroblasts
- Protocol Description: Cellular ATP levels (ATPlite, normalised to CyQUANT DNA content) in sporadic PD patient fibroblasts
- Format: cell-based
- Applied Conditions: Homo sapiens, Fibroblast; max response with lowest dose (0.06 nM); 6 sporadic PD patient fibroblasts; 24 h; read-out: Cellular ATP levels Bottom (% of vehicle treated)
activity at 60 pM values by entry

Any idea what its activity at 60 pM is? The compound is `C[C@H](CCC(=O)O)[C@H]1CC[C@H]2[C@@H]3[C@H](O)C[C@@H]4C[C@@H](O)[C@@H](F)C[C@]4(C)[C@H]3CC[C@]12C`
79.9%

Any idea what its activity at 60 pM is? The compound is C[C@H](CCC(=O)O)[C@H]1CC[C@H]2[C@@H]3[C@H](O)C[C@@H]4C[C@H](O)C(F)=C[C@]4(C)[C@H]3CC[C@]12C [Compound H, reference compound]
87.6%

Any idea what its activity at 60 pM is? The compound is C[C@H](CCC(=O)O)[C@H]1CC[C@H]2[C@@H]3C(=O)C[C@@H]4CC(=O)C(F)=C[C@]4(C)[C@H]3CC[C@]12C [Compound G, 2-fluoro-3,7-dioxo-5β-chol-1-enic acid, reference compound]
83.3%

Any idea what its activity at 60 pM is? The compound is C[C@H](CCC(=O)O)[C@H]1CC[C@H]2[C@@H]3[C@@H](O)C[C@@H]4C[C@@H](O)C(F)=C[C@]4(C)[C@H]3CC[C@]12C [Compound F, reference compound]
99.9%

Any idea what its activity at 60 pM is? The compound is C[C@H](CCC(=O)O)[C@H]1CC[C@H]2[C@@H]3C(=O)C[C@@H]4CC(=O)C(F)(F)C[C@]4(C)[C@H]3CC[C@]12C [Compound E, 2,2-difluoro-3,7-dioxo-5β-cholanic acid, reference compound]
81.6%
